B1: FAM189A2 (parent)
chain: NLAGFILGCQGAQFVSSVPRCDLV

- Variants of: B1
- TEST SUMMARY: protein stability index of a GFP-peptide fusion (GPS, HEK-293T) (PSI 1-6); higher = more stable;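 note: lentivirally expressed fusions sorted by FACS into six bins by GFP to DsRed ratio, PSI derived from sequencing read proportions per bin multiplied by bin number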
- PARTICULARS: c terminus: a fixed tail appended
Reported protein stability index is given for each of the following variants.
Answer field: number only, no words.

Here's what some known entries look like.
- NLAGFILGCQGAQFVSSVPRCDWV [L23W]: 3.69
- NLAGFILGCQGAQFVSSVPDCDLV [R20D]: 3.39
- NLAGFILGCQGAQFVSSVPRCDDV [L23D]: 2.45
- NLAGFILGCLGAQFVSSVPRCDLV [Q10L]: 1.53
- NWAGFILGCQGAQFVSSVPRCDLV [L2W]: 1.35

Field request: protein stability index | item: NLAGFILDCQGAQFVSSVPRCDLV [G8D]
2.19

Field request: protein stability index | item: YLAGFILGCQGAQFVSSVPRCDLV [N1Y]
3.31

Field request: protein stability index | item: NLAGFILGCQGAQFVSSVCRCDLV [P19C]
3.7

Field request: protein stability index | item: NLAGFILGCQGAQFVSMVPRCDLV [S17M]
1.47
